Source: ChEMBL document CHEMBL3751843

test system: SH-SY5Y; assay: Neuroprotective against IFNgamma/LPS stimulated THP1 condition medium-induced neurotoxicity in human SH-SY5Y cells assessed as NO production per 10^6 cells at 100 nM for 1 hr followed by addition of THP1 conditioned medium by griess assay (reference value: 3.75 +/- 0.14 micromol/L); format: functional
Where a SMILES comes first, the peptide text is derived from it. [ ]: non-standard residue; d: D form. αMeP = C[C@@]1(C(=O)O)CCCN1
readout_kind: Activity
Number first, unit second: that is the form wanted.

Guide cases for Activity, answers given:
compound	Activity
C[C@@]1(C(=O)N[C@@H](Cc2cnc[nH]2)C(=O)O)CCCN1C(=O)CN (H-Gly-[αMeP]-His-OH)	3.76 µmol/L
N=C(N)NCCC[C@H](NC(=O)[C@@H]1CCCN1C(=O)CN)C(=O)O (H-Gly-Pro-Arg-OH)	3.74 µmol/L
C[C@@]1(C(=O)N[C@@H](CCCNC(=N)N)C(=O)O)CCCN1C(=O)CN (H-Gly-[αMeP]-Arg-OH)	3.71 µmol/L

Bench note: what Activity did C[C@@]1(C(=O)N[C@@H](CCCCN)C(=O)O)CCCN1C(=O)CN (H-Gly-[αMeP]-Lys-OH) show?
3.68 µmol/L
